Tested on: HCT116 (p53+/+) cells
run.description: Q-PCR relative expression levels, HCT116 (p53+/+)
Assay type: cell-based, human
property.label: relative expression level of USP47 (Q-PCR)

substance	obs.value
USP47i-1: USP47 siRNA #1, 5′-AAGCTACTCCTACTCATCTATTT-3′ (chemistry not given here)	0.3385
USP7i-2: USP7 siRNA #2, 5′-ACCCUUGGACAAUAUUCCU-3′ (chemistry not given here)	0.9671
USP47i: siRNA targeting USP47 (5′-TGAAAAGGGATGTGCAAAA-3′) (chemistry not given here)	0.5092
USP47i-2: USP47 siRNA #2, 5′-TGAAAAGGGATGTGCAAAA-3′ (chemistry not given here)	0.486
